Assay: Cytotoxicity against african green monkey Vero cells assessed as cell viability at 40 ug/mL after 72 hrs by MTT assay
Assay type: cell-based
Details: chlorocebus sabaeus, read-out: Activity
MEASURE: viability at 72 h, 40 ug/mL
Answer format: number, then unit.

Please fill in: viability at 72 h, 40 ug/mL reported for COc1ccc(CNc2nc([N+](=O)[O-])nc(-c3ccco3)c2NC=O)cc1 = 62%
